// values below are reported Inhibition
# System: HeLa
# EXPERIMENT: Percent inhibition of growth of human cervical carcinoma (HeLa) cells in culture at 50 micro g/mL of the compound
# Assay type: functional
Form entry: value (%) — number only.

MOLECULE	Inhibition / %
NC(=O)NO [HYDROXYUREA]	90
O=C(NO)C(OCCO)n1ccc(=O)[nH]c1=O (centres undefined)	13
O=c1[nH]cc(F)c(=O)[nH]1 [FLUOROURACIL]	90

Next item in the queue.
Notebook entry, HeLa assay: Inhibition of O=C(NO)C(OCCO)n1cc(F)c(=O)[nH]c1=O (centres undefined) = ?
80

###

# System: HeLa
# EXPERIMENT: Percent inhibition of growth of human cervical carcinoma (HeLa) cells in culture at 25 micro g/mL of the compound
# Format: functional
QUANTITY: Inhibition

COMPOUND	SYSTEM UNDER TEST	Inhibition
O=c1[nH]cc(F)c(=O)[nH]1	HeLa	77%
O=C(NO)C(OCCO)n1cc(F)c(=O)[nH]c1=O (centres undefined)	HeLa	75%
NC(=O)NO [HYDROXYUREA]	HeLa	77%

Alright, here's another compound for you.
Need Inhibition of O=C(NO)C(OCCO)n1ccc(=O)[nH]c1=O (centres undefined) , thanks.
19%
